assay: Solubility testing of peptides at different pH; type: physicochemical; conditions: 50 mM phosphate buffer pH 9.0; target concentration 1 mg/ml; 2 hours agitation; read-out: Solubility Buffer pH 9.0
Positions of bridges follow the written chain, without caps; N, C: chain ends. Non-standard residues stand in square brackets, D forms with d. Residues, ends and D or L forms follow the SMILES beside them. *: point of attachment. Trp(7-Me) = Cc1cccc2c(C[C@H](N)C(=O)O)c[nH]c12; 2Nal = N[C@@H](Cc1ccc2ccccc2c1)C(=O)O; 3Pal = N[C@@H](Cc1cccnc1)C(=O)O; Thp = NC1(C(=O)O)CCOCC1; Me2NCH2CH2 = CN(C)CC*; Ava = NCCCCC(=O)O
Task for the reader: assign each of the following compounds its reported solubility at 2 h.
Number only, in mg/mL; omit the unit.

Given CC(=O)NCCCC[C@@H]1NC(=O)[C@H](Cc2c[nH]c3c(C)cccc23)NC(=O)[C@H]([C@@H](C)O)NC(=O)[C@H](CC(N)=O)NC(=O)[C@@H]2CSSC[C@H](NC1=O)C(=O)N[C@@H](Cc1ccc(OCCN(C)C)cc1)C(=O)N[C@@H](Cc1ccc3ccccc3c1)C(=O)NC1(CCOCC1)C(=O)N[C@H](C(=O)N[C@@H](CC(N)=O)C(=O)N[C@@H](Cc1cccnc1)C(N)=O)CCC(=O)NCCCCC(=O)N2 [compound 51] ([Ava]CNT[Trp(7-Me)]K(Ac)CY(Me2NCH2CH2)[2Nal][Thp]EN[3Pal]-NH2; disulfide 2-7; lactam N-11) , state its recorded solubility at 2 h.
0.1

Given COc1ccc(C[C@@H]2NC(=O)[C@@H]3CSSC[C@H](NC(=O)CCC(=O)NCCCC[C@@H](C(=O)N[C@@H](CC(N)=O)C(=O)N[C@@H](CC(N)=O)C(N)=O)NC(=O)C(C)(C)NC(=O)[C@H](Cc4ccc5ccccc5c4)NC2=O)C(=O)N[C@@H](CC(N)=O)C(=O)N[C@@H]([C@@H](C)O)C(=O)N[C@@H](Cc2c[nH]c4ccccc24)C(=O)N[C@@H](CCC(N)=O)C(=O)N3)cc1 [compound 11] , state its recorded solubility at 2 h.
0.08
